Values were extracted from ChEMBL document CHEMBL5260809.

target: UniProtKB P08482; test: Agonist activity at rat M1 muscarinic receptor
Sequence (P08482 whole entry): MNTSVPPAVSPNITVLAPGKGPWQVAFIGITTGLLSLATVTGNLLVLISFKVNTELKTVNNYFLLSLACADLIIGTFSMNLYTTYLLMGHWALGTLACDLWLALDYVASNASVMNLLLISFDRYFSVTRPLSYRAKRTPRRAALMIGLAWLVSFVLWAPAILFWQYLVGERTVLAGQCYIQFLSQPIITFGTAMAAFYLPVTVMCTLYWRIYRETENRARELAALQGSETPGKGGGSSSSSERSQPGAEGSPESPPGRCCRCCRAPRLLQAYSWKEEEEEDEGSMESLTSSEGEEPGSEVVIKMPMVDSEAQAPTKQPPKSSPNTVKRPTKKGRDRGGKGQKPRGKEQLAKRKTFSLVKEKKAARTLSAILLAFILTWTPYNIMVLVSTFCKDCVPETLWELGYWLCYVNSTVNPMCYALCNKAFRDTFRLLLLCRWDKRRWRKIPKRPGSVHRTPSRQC

Compound: C#CCOc1noc2c1CNCCC2C (stereo unspecified)
EC50 / µM: 1.3

* * *

experiment: Selectivity index, ratio of CC50 for human HeLa cells to IC50 for Human rhinovirus 2; type: toxicity; conditions: read-out: Ratio CC50/IC50
selectivity ratio reference
Measured Endpoint: selectivity ratio

Smiles Repr: Cc1cc(CCCOc2ccc(-c3ccccc3C)cc2)on1
Measured Endpoint: selectivity ratio
Measured: 57.5
--
Smiles Repr: Cc1cc(CCCOc2ccc(-c3cccc(F)c3)cc2)on1
Measured Endpoint: selectivity ratio
Measured: 230
--
Smiles Repr: Cc1cc(CCCOc2ccc(-c3ccc(F)cc3)cc2)on1
Measured Endpoint: selectivity ratio
Measured: > 5560

* * *

assay: Selectivity index, ratio of CC50 for human HeLa cells to IC50 for Coxsackievirus B3 isolate 97-927; format: toxicity; settings: read-out: Ratio CC50/IC50
Measured Endpoint: selectivity ratio

Smiles Repr: Cc1cc(CCCOc2ccc(-c3ccccc3C)cc2)on1
Inequality Sign: =
Measured: 2.6

Smiles Repr: Cc1cc(CCCOc2ccc(-c3ccc(F)cc3)cc2)on1
Inequality Sign: >
Measured: 37.3

Smiles Repr: Cc1cc(CCCOc2ccc(-c3cccc(F)c3)cc2)on1
Inequality Sign: =
Measured: 2.9

* * *

Target: Muscarinic acetylcholine receptor M2 (Rattus norvegicus, UniProt P10980)
Sequence (P10980 whole entry): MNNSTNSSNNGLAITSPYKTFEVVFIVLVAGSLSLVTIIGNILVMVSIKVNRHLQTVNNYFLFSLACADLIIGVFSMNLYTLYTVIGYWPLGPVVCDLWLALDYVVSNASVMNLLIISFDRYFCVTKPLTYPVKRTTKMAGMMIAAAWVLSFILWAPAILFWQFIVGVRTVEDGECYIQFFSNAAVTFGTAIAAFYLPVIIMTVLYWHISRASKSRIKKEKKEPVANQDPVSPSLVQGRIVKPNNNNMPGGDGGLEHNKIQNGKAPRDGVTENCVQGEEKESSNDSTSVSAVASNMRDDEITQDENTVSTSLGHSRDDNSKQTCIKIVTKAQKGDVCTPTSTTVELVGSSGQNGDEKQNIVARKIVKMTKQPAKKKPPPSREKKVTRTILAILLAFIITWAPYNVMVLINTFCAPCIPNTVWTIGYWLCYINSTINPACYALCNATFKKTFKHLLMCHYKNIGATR
Test: Agonist activity at rat M2 muscarinic receptor
pEC50: −log10 of the molar value.

Molecule: C#CCOc1noc2c1CNCCC2C (stereo unspecified)
pEC50: < 4.29
